Recorded DC50 by entry
systemName: HiBiT-tagged BCL-xL (Homo sapiens)
Construct: expressed in transfected cells; host or cells: NCI-H1650 (ATCC No. CRL-5883), engineered HiBiT cell line
Sequence (Q07817 whole entry): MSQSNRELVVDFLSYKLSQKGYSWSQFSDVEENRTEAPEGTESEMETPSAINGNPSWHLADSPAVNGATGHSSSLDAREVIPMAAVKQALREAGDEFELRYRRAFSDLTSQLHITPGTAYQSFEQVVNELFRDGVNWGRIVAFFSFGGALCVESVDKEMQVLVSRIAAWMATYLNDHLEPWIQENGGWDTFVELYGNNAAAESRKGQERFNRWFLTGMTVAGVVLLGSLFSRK
assayOverview: NCI-H1650 BCL-xL protein levels, Nano-Glo HiBiT Lytic Detection
Type: cell-based
assaySetup: NCI-H1650 expressing HiBiT-tagged BCL-xL, overnight incubation, read-out: Bcl-xl HIBIT NCIH1650 DC50

compound	unitsText	qualifier	DC50
Cc1ncsc1-c1ccc([C@H](C)NC(=O)C2C[C@@H](O)CN2C(=O)C(NC(=O)CCCCCCC(=O)N2CCN(CC#Cc3ccc(OCCCc4sc(N5CCCc6c5nnc(Nc5nc7ccccc7s5)c6C)nc4C(=O)O)c(F)c3)CC2)C(C)(C)C)cc1 (stereo in doubt)	nM	=	3
Cc1ncsc1-c1ccc(CNC(=O)[C@@H]2C[C@@H](O)CN2C(=O)[C@@H](NC(=O)C2(F)CC2)C(C)(C)C)c(OCCCCCCCCCN(C)CCOC23CC4(C)CC(C)(CC(Cn5ncc(-c6ccc(N7CCCc8c7nnc(Nc7nc9ccccc9s7)c8C)nc6C(=O)O)c5C)(C4)C2)C3)c1	nM	>	1670
Cc1ncsc1-c1ccc(CNC(=O)[C@@H]2C[C@@H](O)CN2C(=O)[C@@H](NC(=O)C2(F)CC2)C(C)(C)C)c(OCCCCCCCCCCN(C)CCOC23CC4(C)CC(C)(CC(Cn5ncc(-c6ccc(N7CCCc8c7nnc(Nc7nc9ccccc9s7)c8C)nc6C(=O)O)c5C)(C4)C2)C3)c1	nM	=	13
Cc1ncsc1-c1ccc([C@H](C)NC(=O)[C@@H]2C[C@@H](O)CN2C(=O)[C@@H](NC(=O)CCCCCCCCCCCCCN(C)CCOC23CC4(C)CC(C)(CC(Cn5ncc(-c6ccc(N7CCCc8c7nnc(Nc7nc9ccccc9s7)c8C)nc6CO)c5C)(C4)C2)C3)C(C)(C)C)cc1	nM	>	1670
Cc1c(Nc2nc3ccccc3s2)nnc2c1CCCN2c1ccc(-c2cnn(CC34CC5(C)CC(C)(C3)CC(OCCN(C)CCCCCCCCCCOc3ccc6c(c3)C(=O)N(C3CCC(=O)NC3=O)C6=O)(C5)C4)c2C)c(C(=O)O)n1 (stereo not shown)	nM	>	1670
Cc1ncsc1-c1ccc([C@H](C)NC(=O)[C@@H]2C[C@@H](O)CN2C(=O)[C@@H](NC(=O)COCCCCCCCCCN(C)CCOC23CC4(C)CC(C)(CC(Cn5ncc(-c6ccc(N7CCCc8c7nnc(Nc7nc9ccccc9s7)c8C)nc6C(=O)O)c5C)(C4)C2)C3)C(C)(C)C)cc1	nM	=	1
Cc1cc(N(CCCCN(C)C(=O)CCCCCCCCCCC(=O)N[C@H](C(=O)N2C[C@H](O)C[C@H]2C(=O)N[C@@H](C)c2ccc(-c3scnc3C)cc2)C(C)(C)C)c2ccc(-c3cnn(CC45CC6(C)CC(C)(C4)CC(OCCN(C)C)(C6)C5)c3C)c(C(=O)N(C)C)n2)nnc1Nc1nc2ccccc2s1	nM	=	18

FYI, the data here is from patent US20240376094A2.
